Source: patent US20190031665A1

Molecular target: human tryptophan 2,3-dioxygenase (hTDO) (Homo sapiens)
Construct: His tag (N); purchased BPS Bioscience, San Diego, Calif., USA; host or cells: E. coli
Sequence (P48775 whole entry): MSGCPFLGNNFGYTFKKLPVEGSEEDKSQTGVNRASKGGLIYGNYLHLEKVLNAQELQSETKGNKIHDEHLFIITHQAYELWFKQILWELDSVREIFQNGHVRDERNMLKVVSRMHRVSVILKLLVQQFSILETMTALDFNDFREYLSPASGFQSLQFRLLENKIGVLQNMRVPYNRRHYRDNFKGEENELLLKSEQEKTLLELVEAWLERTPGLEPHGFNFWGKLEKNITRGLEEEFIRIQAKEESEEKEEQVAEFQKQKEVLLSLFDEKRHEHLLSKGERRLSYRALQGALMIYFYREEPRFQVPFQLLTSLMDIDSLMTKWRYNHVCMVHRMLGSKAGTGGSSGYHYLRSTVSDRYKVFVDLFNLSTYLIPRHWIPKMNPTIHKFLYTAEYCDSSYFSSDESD
Test: In-vitro human tryptophan 2,3-dioxygenase (TDO) enzyme assay
Type: biochemical
Conditions: hTDO enzyme at 1.0 μM concentration
MEASURED_PARAMETER: inhibition at 1 µM

# query: inhibition at 1 µM of entry CC1=C(c2ccccc2)C(CC(O)C2CCN(c3ccccn3)CC2)n2cncc21 (centres unmarked) [Example 188] ≤ 50%

What do we get for CC1=C(c2ccccc2)C(CC(O)C2CCCCC2)n2cncc21 (centres unmarked) [Example 89] ? ≥ 50%

What do we get for CC1=C(c2ccccc2)C(CC(O)c2ccc(-c3ccncc3)cc2)n2cncc21 (centres unmarked) [Example 59] ? ≤ 50%

What do we get for CC1=C(c2ccccc2)C(CC(=O)c2ccc(-c3ccc(C)cc3)cc2)n2cncc21 (centres unmarked) [Example 62] ? ≥ 50%

What do we get for CC1=C(c2ccccc2)C(CC(O)C2CCC(F)(F)CC2)n2cncc21 (centres unmarked) [Example 184] ? ≥ 50%
